assay: chemical genetic growth profiling, strain panel (AID 1159580);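 note: tested at 20 µM; growth read once vehicle control cultures reached saturation at 30 °C; 1 = growth at the plate median or of vehicle wells; lower values mean less growth of the strain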; conditions: S. cerevisiae strains, growth OD, strain wild type
About 2,000 (36%) of roughly 5,500 compounds were called active. About 18% were inconclusive and are not listed. Cut-off read from the data, not from the text of the source: active = normalized growth mostly below about 0.91 (no sharp cut-off); inconclusive = no clear call, values can overlap the other calls; inactive = mostly above about 0.92. This is one part of the list.
Labels: active, inactive

{"compound": "CCCCCCCCCCc1ccc(-c2ccccc2)cc1", "cat": "active"}
{"compound": "FC(F)(F)c1ccc(-c2nc(-c3ccc4c(c3)OCCCO4)cs2)cc1", "cat": "inactive"}
{"compound": "CCC/C=C/C=C/[C@@H]1C[C@@H](O)[C@@H](O)C(=O)[C@H]1C=O", "cat": "inactive"}
{"compound": "CCCCCCc1ccc(O)cc1O", "cat": "inactive"}
{"compound": "NCCc1ccc(O)cc1", "cat": "inactive"}
{"compound": "COc1cc2c(cc1OC)-c1cc3ccc(OC)c(OC)c3c[n+]1CC2", "cat": "inactive"}
{"compound": "COc1ccc2cc3[n+](cc2c1OC)CCc1cc2c(cc1-3)OCO2", "cat": "active"}
{"compound": "C#CCOS(=O)OC1CCCCC1Oc1ccc(C(C)(C)C)cc1 (configuration not stated)", "cat": "inactive"}
{"compound": "O=C(/C=C/c1ccccc1)c1ccc(O)cc1", "cat": "active"}
{"compound": "CC1NC(=O)NC1=O (configuration not stated)", "cat": "inactive"}
{"compound": "NCCc1cccc(O)c1", "cat": "inactive"}
{"compound": "CC1(C)O[C@@H]2CC3C4C[C@H](F)C5=CC(=O)C=CC5(C)C4C(O)CC3(C)[C@]2(C(=O)CO)O1 (some centres not stated)", "cat": "inactive"}

* * *

test: chemical genetic growth profiling, strain panel (AID 1159580); conditions: S. cerevisiae deletion strains, growth OD, locus YJL092W, strain hpr5, hits give low values
Among all 5,500 compounds or so, about 2,000 (36%) were called active. Another 18% or so got no clear call; they are omitted. This is one part of the list.
Measured normalized growth of individual entries
experimental-readout: normalized growth

{"molecule": "CC(=O)Nc1ccc(OC(=O)c2ccccc2O)cc1", "numeric-value": 0.946}
{"molecule": "CC1=NCCc2c1[nH]c1cc(O)ccc21", "numeric-value": 0.965}
{"molecule": "CN(N=O)C(=O)N[C@@H]1[C@@H](O)[C@H](O)[C@@H](CO)O[C@@H]1O", "numeric-value": 0.979}
{"molecule": "NCC(=O)CCC(=O)O", "numeric-value": 0.969}
{"molecule": "CN1CCN2c3ccccc3Cc3ccccc3C2C1 (configuration not stated)", "numeric-value": 1}
{"molecule": "COc1cc([C@@H]2c3cc4c(cc3[C@H](O)[C@H]3COC(=O)[C@@H]23)OCO4)cc(OC)c1OC", "numeric-value": 1.02}
{"molecule": "O=c1c(-c2cc(O)c(O)c(O)c2)coc2cc(O)c(O)c(O)c12", "numeric-value": 1.01}
{"molecule": "CN1CCOC(c2ccccc2)c2ccccc2C1 (configuration not stated)", "numeric-value": 0.986}
{"molecule": "CC(=O)Nc1cccc(O)c1", "numeric-value": 1.01}
{"molecule": "CC(=O)Oc1ccc(-c2cc(=O)c3c(OC(C)=O)cc(OC(C)=O)cc3o2)cc1", "numeric-value": 0.982}
{"molecule": "COc1ccc(-c2coc3cc(OC(C)=O)cc(OC(C)=O)c3c2=O)cc1", "numeric-value": 0.923}
{"molecule": "CC(=O)Nc1ccc(O)cc1", "numeric-value": 1}

* * *

experiment: chemical genetic growth profiling, strain panel (AID 1159580); details: S. cerevisiae deletion strains, growth OD, locus YML094W, strain GIM5, hits give low values
Among all 5,500 compounds or so, about 2,000 (36%) were called active. About 18% were inconclusive and are not listed. This is one part of the list.
Measured normalized growth of individual entries

{"molecule": "O=C(Nc1ccccc1SCc1cccc(C(F)(F)F)c1)c1c(F)cccc1Cl", "normalized growth": 1}
{"molecule": "Clc1cccc(-c2csc(Nc3cccnc3)n2)c1", "normalized growth": 0.971}
{"molecule": "O=C(O)c1coc2ccccc2c1=O", "normalized growth": 0.96}
{"molecule": "O=C1NC(c2ccccc2Cl)Nc2ccccc21 (stereo not drawn)", "normalized growth": 0.989}
{"molecule": "FC(F)(F)c1ccc(-c2nc(-c3ccc4c(c3)OCCCO4)cs2)cc1", "normalized growth": 1.04}
{"molecule": "CC(=O)c1csc(-c2ccc(C(F)(F)F)cc2)n1", "normalized growth": 0.898}
{"molecule": "COC(=O)c1ccc(Cl)cc1N(Cc1ccccc1)S(C)(=O)=O", "normalized growth": 1.02}
{"molecule": "CSC(=NCc1cccnc1)NC#N", "normalized growth": 1.06}
{"molecule": "Cc1ccc(COc2ccc(C)nc2[N+](=O)[O-])cc1", "normalized growth": 0.855}
{"molecule": "Clc1ccc(-c2csc(-c3ccno3)n2)s1", "normalized growth": 0.868}
{"molecule": "CSc1nc(N)nc(C(C)(C)C)n1", "normalized growth": 0.981}
{"molecule": "N#Cc1ccc([N+](=O)[O-])s1", "normalized growth": 0.271}
{"molecule": "Cc1cc(C(F)(F)F)c(C#N)c(=O)[nH]1", "normalized growth": 0.997}

* * *

experiment: chemical genetic growth profiling, strain panel (AID 1159580);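 note: tested at 20 µM; growth read once vehicle control cultures reached saturation at 30 °C; 1 = growth at the plate median or of vehicle wells; lower values mean less growth of the strain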; conditions: S. cerevisiae deletion strains, growth OD, locus YER015W, strain faa2
Among all 5,500 compounds or so, about 2,000 (36%) were called active. About 18% were inconclusive and are not listed. No stated cut-off is given here; in the data, active means normalized growth mostly below about 0.91 (no sharp cut-off); inconclusive means no clear call, values can overlap the other calls; inactive means mostly above about 0.92. Some of the results follow.
Labels: 1 (yes) for active, 0 (no) for inactive

{"molecule": "COc1cc2c3cc1Oc1cc(ccc1O)C[C@@H]1c4c(cc(OC)c(O)c4Oc4ccc(cc4)C[C@@H]3N(C)CC2)CC[N+]1(C)C", "cat": "0 (no)"}
{"molecule": "CN(C)CCC=C1c2ccccc2CCc2ccccc21", "cat": "1 (yes)"}
{"molecule": "CN(N=O)C(=O)N[C@@H]1[C@@H](O)[C@H](O)[C@@H](CO)O[C@@H]1O", "cat": "0 (no)"}
{"molecule": "CN(C)CC/C=C1/c2ccccc2COc2ccccc21", "cat": "0 (no)"}
{"molecule": "CC(=O)O[C@H]1C[C@H](O[C@H]2[C@@H](O)C[C@H](O[C@H]3[C@@H](O)C[C@H](O[C@H]4CC[C@@]5(C)C(CCC6C5C[C@@H](O)[C@]5(C)[C@@H](C7=CC(=O)OC7)CC[C@]65O)C4)O[C@@H]3C)O[C@@H]2C)O[C@H](C)[C@H]1O[C@@H]1O[C@H](CO)[C@@H](O)[C@H](O)[C@H]1O (stereo partly specified)", "cat": "0 (no)"}
{"molecule": "CC(C)(O)[C@@H]1CC[C@](C)([C@H]2[C@@H](O)C[C@@]3(C)C4C[C@H](O[C@@H]5O[C@H](CO)[C@@H](O)[C@H](O)[C@H]5O)C5C(C)(C)[C@@H](O[C@@H]6OC[C@@H](O)[C@H](O)[C@H]6O)CC[C@@]56C[C@@]46CC[C@]23C)O1 (stereo partly specified)", "cat": "0 (no)"}

* * *

test: chemical genetic growth profiling, strain panel (AID 1159580);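 note: tested at 20 µM; growth read once vehicle control cultures reached saturation at 30 °C; 1 = growth at the plate median or of vehicle wells; lower values mean less growth of the strain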; settings: S. cerevisiae deletion strains, growth OD, locus YDR001C, strain nth1, hits give low values
The whole screen tested about 5,500 compounds, of which about 2,000 (36%) were called active. Another 18% or so got no clear call; they are omitted. The list shows a part of the results.
Could you please mark t for values of normalized growth below 1 and f for values at or above it?

{"compound": "O=C1CN2Cc3c(ccc(Cl)c3Cl)N=C2N1", "cat": "f"}
{"compound": "O=c1c2ccccc2[se]n1-c1ccccc1", "cat": "t"}
{"compound": "COc1ccc(-c2cc(=O)c3cc(OC)ccc3o2)cc1", "cat": "t"}
{"compound": "COC(=O)C1=C(C)NC(C)=C(C(=O)OCC(C)C)C1c1ccccc1[N+](=O)[O-] (centres undefined)", "cat": "t"}

* * *

Measured normalized growth of individual entries
experiment: chemical genetic growth profiling, strain panel (AID 1159580);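 note: tested at 20 µM; growth read once vehicle control cultures reached saturation at 30 °C; 1 = growth at the plate median or of vehicle wells; lower values mean less growth of the strain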; conditions: S. cerevisiae deletion strains, growth OD, locus YDR392W, strain spt3, hits give low values
Out of some 5,500 compounds screened, about 2,000 (36%) were called active. Not shown: some 18% with an inconclusive outcome. This is one part of the list.
experimental-readout: normalized growth

{"compound": "CC1=NCCc2c1[nH]c1cc(O)ccc21", "result": "0.93 (inactive)"}
{"compound": "S=c1ccss1", "result": "1.02 (inactive)"}
{"compound": "COc1ccc(-c2cc(=O)c3c(OC)c(OC)c(OC)c(OC)c3o2)cc1", "result": "0.248 (active)"}
{"compound": "COc1cc([C@@H]2c3cc4c(cc3[C@H](O)[C@H]3COC(=O)[C@@H]23)OCO4)cc(OC)c1OC", "result": "0.989 (inactive)"}
{"compound": "CC1=C2C(=CO[C@H](C)[C@H]2C)C(=O)C(C(=O)O)=C1O", "result": "0.821 (inactive)"}
{"compound": "ClC(Cl)=C(c1ccc(Cl)cc1)c1ccc(Cl)cc1", "result": "0.967 (inactive)"}
{"compound": "O=c1[nH]c2cc(Cl)c(Cl)cc2[nH]c1=O", "result": "0.92 (inactive)"}
{"compound": "CC[C@]12C=CCN3CC[C@@]4(c5ccc(OC)cc5N(C)C4[C@@](O)(C(=O)OC)[C@@H]1OC(C)=O)[C@@H]32 (stereo partly specified)", "result": "0.943 (inactive)"}
{"compound": "O=C(O)c1cn(-c2ccc(F)cc2)c2cc(N3CCNCC3)c(F)cc2c1=O", "result": "1.02 (inactive)"}
{"compound": "CCN1CCN(c2cc3c(cc2F)c(=O)c(C(=O)O)cn3C2CC2)CC1", "result": "1 (inactive)"}
{"compound": "COc1ccc(-c2cc(=O)c3c(O)c(OC)c(OC)c(OC)c3o2)cc1", "result": "0.991 (inactive)"}
